Biological target: porcine pancreatic α-amylase (Sus scrofa)
Sequence (P00690 16-511): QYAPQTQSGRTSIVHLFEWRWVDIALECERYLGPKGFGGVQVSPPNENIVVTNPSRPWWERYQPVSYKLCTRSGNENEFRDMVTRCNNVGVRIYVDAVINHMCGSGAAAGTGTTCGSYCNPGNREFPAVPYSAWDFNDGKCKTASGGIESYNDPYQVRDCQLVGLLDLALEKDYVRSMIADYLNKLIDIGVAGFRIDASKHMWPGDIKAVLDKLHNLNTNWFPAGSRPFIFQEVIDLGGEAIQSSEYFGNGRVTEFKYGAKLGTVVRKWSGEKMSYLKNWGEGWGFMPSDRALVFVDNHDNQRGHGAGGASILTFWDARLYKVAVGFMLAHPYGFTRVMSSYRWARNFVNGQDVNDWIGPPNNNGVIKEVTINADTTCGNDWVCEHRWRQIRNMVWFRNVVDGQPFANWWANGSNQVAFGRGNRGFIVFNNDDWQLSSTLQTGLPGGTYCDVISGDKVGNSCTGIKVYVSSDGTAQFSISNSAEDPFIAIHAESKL
Value Type: pIC50
Remember, pIC50 is on a log scale: it is -log10 of the molar concentration.

[ask] What reported pIC50 corresponds to O=c1c2cc(O)c(O)cc2oc2cc(O)c([C@@H]3O[C@H](CO)[C@@H](O)[C@H](O)[C@H]3O)c(O)c12 on porcine pancreatic α-amylase (Sus scrofa)?
[reply] 2.61
